B1: GST–SKIP(1-310) [not stated] / HA–KHC [rat] (parent)
chain 1: MEPGEVKDRILENISLSVKKLQSYFAACEDEIPAIRNHDKVLQRLCEHLDHALLYGLQDLSSGYWVLVVHFTRREAIKQIEVLQHVATNLGRSRAWLYLALNENSLESYLRLFQENLGLLHKYYVKNALVCSHDHLTLFLTLVSGLEFIRFELDLDAPYLDLAPYMPDYYKPQYLLDFEDRLPSSVHGSDSLSLNSFNSVTSTNLEWDDSAIAPSSEDYDFGDVFPAVPSVPSTDWEDGDLTDTVSGPRSTASDLTSSKASTRSPTQRQNPFNEEPAETVSSSDTTPVHTTSQEKEEAQALDPPDACTEL
chain 2: MADPAECSIKVMCRFRPLNEAEILRGDKFIPKFKGEETVVIGQGKPYVFDRVLPPNTTQEQVYNACAKQIVKDVLEGYNGTIFAYGQTSSGKTHTMEGKLHDPQLMGIIPRIAHDIFDHIYSMDENLEFHIKVSYFEIYLDKIRDLLDVSKTNLAVHEDKNRVPYVKGCTERFVSSPEEVMDVIDEGKANRHVAVTNMNEHSSRSHSIFLINIKQENVETEKKLSGKLYLVDLAGSEKVSKTGAEGAVLDEAKNINKSLSALGNVISALAEGTKTHVPYRDSKMTRILQDSLGGNCRTTIVICCSPSVFNEAETKSTLMFGQRAKTIKNTVSVNLELTAEEWKKKYEKEKEKNKALKSVIQHLEVELNRWRNGEAVPEDEQISAKDQKNLEPCDNTPIIDNITPVVDGISAEKEKYDEEITSLYRQLDDKDDEINQQSQLAEKLKQQMLDQDELLASTRRDYEKIQEELTRLQIENEAAKDEVKEVLQALEELAVNYDQKSQEVEDKTRANEQLTDELAQKTTTLTTTQRELSQLQELSNHQKKRATEILNLLLKDLGEIGGIIGTNDVKTLADVNGVIEEEFTMARLYISKMKSEVKSLVNRSKQLESAQTDSNRKMNASERELAACQLLISQHEAKIKSLTDYMQNMEQKRRQLEESQDSLSEELAKLRAQEKMHEVSFQDKEKEHLTRLQDAEEVKKALEQQMESHREAHQKQLSRLRDEIEEKQRIIDEIRDLNQKLQLEQERLSSDYNKLKIEDQEREVKLEKLLLLNDKREQAREDLKGLEETVSRELQTLHNLRKLFVQDLTTRVKKSVELDSDDGGGSAAQKQKISFLENNLEQLTKVHKQLVRDNADLRCELPKLEKRLRATAERVKALESALKEAKENAMRDRKRYQQEVDRIKEAVRAKNMARRAHSAQIAKPIRPGHYPASSPTAVHAVRGGGGSSNSTHYQK

variants of: B1; test: GST pull-down, immunoblot (IB: HA) quantified; conditions: with HA–KHC [rat]; lysates of 293T cells co-expressing HA-KHC and HA-KLC2 (kinesin-1 tetramer); three independent experiments; parent: 1; read off a plot
MEASURED QUANTITY: ratio to parent
Could you keep your reply to the number by itself?

Example cases with answers are listed next.
chain 1 W236A E237A: 0.97
chain 1 E217A D218A Y219A: 0.5
chain 1 D220A F221A G222A: 0.38

I am curious: what ratio to parent value has been reported for chain 1 D238A G239A D240A ?
0.98
